Would you mind telling me the reported Ratio Ki of each entry?
# Assay Details: Selectivity ratio of Ki for sigma 2 receptor in Wistar Hannover rat liver membrane to Ki for sigma 1 receptor in Dunkin guinea pig brain
# Assay type: cell membranes
One number for each entry.

I need Ratio Ki for every entry listed below, if you could help.
1. COc1cccc2c1CCCC2CCCN1CCNCC1 (configuration not stated)
2. COc1cccc2c1CCCC2CCCC1CCN(C2CCCCC2)CC1 (configuration not stated)
3. C1CCC(CCCN2CCN(C3CCCCC3)CC2)CC1
4. COc1cccc2c1CCCC2OCCN1CCC(C2CCCCC2)CC1 (configuration not stated)
5. COc1cccc2c1CCCC2CCCN1CCC(O)(C2CCCCC2)CC1 (configuration not stated)
6. C1CCC(N2CCN(C3CCCCC3)CC2)CC1
7. COc1cccc2c1CCCC2CCC(=O)N1CCN(C2CCCCC2)CC1 (configuration not stated)
8. COc1cccc2c1CCCC2NCCN1CCC(C2CCCCC2)CC1 (configuration not stated)

// result
1. 2.7
2. 24
3. 19
4. 1.8
5. 1.6
6. 5.6
7. 1630
8. 111

Report Ratio Ki for every entry below.
1. COc1cccc2c1CCCC2CCCN1CCOCC1 (configuration not stated)
2. COc1cccc2c1CCCC2CCCN1CCCCC1 (configuration not stated)
3. CCN1CCN(C2CCCCC2)CC1
4. O=C(C1CCCCC1)N1CCN(C2CCCCC2)CC1

// result
49
12
5.6
56
